target: EGFR (epidermal growth factor receptor) (Homo sapiens); construct: is purified from human A431 cell membranes (Sigma, St. Louis, MO, Cat.# E3641); purchased Sigma, St. Louis, MO E3641; host or cells: human A431 cell membranes (endogenous protein); test: Kinase Selectivity Assay EGF-R; format: biochemical; details: read-out: Kinase Assay (IC50 uM) EGF-R
measurement label: IC50

- compound: "Cc1ccsc1C(=O)n1nc(Nc2ccc(-n3cncn3)cc2)nc1N [Cpd 99]"
  measurement label: "IC50"
  endpoint value: "> 100 µM"
- compound: "Cc1ccsc1C(=O)n1nc(Nc2ccc(S(=O)(=O)Nc3ccccn3)cc2)nc1N [Cpd 121]"
  measurement label: "IC50"
  endpoint value: "> 10 µM"
- compound: "Cc1ccc(F)c(C(=O)n2nc(Nc3ccc(S(N)(=O)=O)cc3)nc2N)c1Cl [Cpd 69]"
  measurement label: "IC50"
  endpoint value: "> 100 µM"
- compound: "CCc1ccc(C(=O)n2nc(Nc3ccc(NS(C)(=O)=O)cc3)nc2N)s1 [Cpd 110]"
  measurement label: "IC50"
  endpoint value: "> 10 µM"
- compound: "Nc1nc(Nc2ccc(N3CCNC3=O)cc2)nn1C(=O)c1c(F)cccc1F [Cpd 115]"
  measurement label: "IC50"
  endpoint value: "> 10 µM"
- compound: "Cc1ccsc1C(=O)n1nc(Nc2ccc(S(=O)(=O)NCCN(C)C)cc2)nc1N [Cpd 104]"
  measurement label: "IC50"
  endpoint value: "> 10 µM"
- compound: "CN1CCN(c2ccc(Nc3nc(N)n(C(=O)c4c(F)cccc4F)n3)cc2)CC1 [Cpd 71]"
  measurement label: "IC50"
  endpoint value: "> 10 µM"
- compound: "Cc1cc(C)c(C(=O)n2nc(Nc3ccc(S(=O)(=O)Nc4ccccn4)cc3)nc2N)s1 [Cpd 120]"
  measurement label: "IC50"
  endpoint value: "> 10 µM"
- compound: "Cc1cc(C)c(C(=O)n2nc(Nc3ccc(NS(C)(=O)=O)cc3)nc2N)s1 [Cpd 108]"
  measurement label: "IC50"
  endpoint value: "> 100 µM"
- compound: "CCc1ccc(C(=O)n2nc(Nc3ccc(S(=O)(=O)NC)cc3)nc2N)s1 [Cpd 84]"
  measurement label: "IC50"
  endpoint value: "> 10 µM"
- compound: "Nc1nc(Nc2ccc(S(N)(=O)=O)cc2)nn1C(=O)C1CCCC1 [Cpd 38]"
  measurement label: "IC50"
  endpoint value: "> 100 µM"
- compound: "Cc1ccsc1C(=O)n1nc(Nc2ccc(N3CCNC3=O)cc2)nc1N [Cpd 113]"
  measurement label: "IC50"
  endpoint value: "> 10 µM"
- compound: "Nc1nc(Nc2ccc(S(N)(=O)=O)cc2)n(C(=S)Nc2c(F)cccc2F)n1 [Cpd 128]"
  measurement label: "IC50"
  endpoint value: "> 100 µM"
- compound: "CNS(=O)(=O)c1ccc(Nc2nc(N)n(C(=O)c3c(F)ccc(C)c3F)n2)cc1 [Cpd 81]"
  measurement label: "IC50"
  endpoint value: "> 100 µM"
- compound: "Nc1nc(Nc2ccc(S(N)(=O)=O)cc2)nn1C(=O)c1c(F)cccc1Cl [Cpd 70]"
  measurement label: "IC50"
  endpoint value: "> 100 µM"
- compound: "Cc1ccc(F)c(C(=O)n2nc(N)nc2Nc2ccc(S(N)(=O)=O)cc2)c1F [Cpd 123]"
  measurement label: "IC50"
  endpoint value: "> 100 µM"
- compound: "Cc1ccc(F)c(C(=O)n2nc(Nc3ccc(N4CCNC4=O)cc3)nc2N)c1F [Cpd 114]"
  measurement label: "IC50"
  endpoint value: "> 100 µM"
- compound: "Cc1nc(C)c(C(=O)n2nc(Nc3ccc(S(N)(=O)=O)cc3)nc2N)s1 [Cpd 34]"
  measurement label: "IC50"
  endpoint value: "> 100 µM"

* * *

Reported IC50 values follow for various compounds
system: HCT-116 colon carcinoma; assay: Inhibition of Cell Proliferation, 14C-thymidine incorporation, HCT-116; assay type: cell-based; conditions: Homo sapiens; Cell Line HCT-116

- mol: "Cc1cc(C)c(C(=O)n2nc(Nc3ccc(NS(C)(=O)=O)cc3)nc2N)s1"
  IC50 [nM]: 76
- mol: "Nc1nc(Nc2ccc(S(N)(=O)=O)cc2)nn1C(=S)Nc1c(F)cccc1F"
  IC50 [nM]: 20
- mol: "Nc1nc(Nc2ccc(S(N)(=O)=O)cc2)n(C(=S)Nc2c(F)cccc2F)n1"
  IC50 [nM]: 910
- mol: "Cc1cc(C)c(C(=O)n2nc(Nc3ccc(S(N)(=O)=O)cc3)nc2N)s1"
  IC50 [nM]: 27
- mol: "CCc1ccc(C(=O)n2nc(Nc3ccc(S(=O)(=O)Nc4ccccn4)cc3)nc2N)s1"
  IC50 [nM]: 117
- mol: "Cc1ccsc1C(=O)n1nc(Nc2ccc(S(N)(=O)=O)cc2)nc1N"
  IC50 [nM]: 127

* * *

Reported IC50 by item:
system: HeLa cervical adenocarcinoma; assay: Inhibition of Cell Proliferation, 14C-thymidine incorporation, HeLa; format: cell-based; conditions: Homo sapiens; Cell Line HeLa

- mol: "Cc1cc(C)c(C(=O)n2nc(Nc3ccc(NS(C)(=O)=O)cc3)nc2N)s1"
  IC50: "221 nM"
- mol: "Cc1ccsc1C(=O)n1nc(Nc2ccc(S(N)(=O)=O)cc2)nc1N"
  IC50: "91 nM"
- mol: "CCc1ccc(C(=O)n2nc(Nc3ccc(S(=O)(=O)Nc4ccccn4)cc3)nc2N)s1"
  IC50: "146 nM"
- mol: "Nc1nc(Nc2ccc(S(N)(=O)=O)cc2)nn1C(=S)Nc1c(F)cccc1F"
  IC50: "35 nM"
- mol: "Nc1nc(Nc2ccc(S(N)(=O)=O)cc2)n(C(=S)Nc2c(F)cccc2F)n1"
  IC50: "128 nM"
- mol: "Cc1cc(C)c(C(=O)n2nc(Nc3ccc(S(N)(=O)=O)cc3)nc2N)s1"
  IC50: "72 nM"

* * *

biological target: HER2 (human epidermal growth factor receptor-2) (Homo sapiens, UniProt P04626); construct: begins at amino acid 676 followed by the remainder of the HER2 cytoplasmic domain; polyhistidine (N); test: Kinase Selectivity Assay HER2; format: biochemical; details: read-out: Kinase Assay (IC50 uM) HER2 Kinase
Sequence (P04626 676-1255 limits assumed): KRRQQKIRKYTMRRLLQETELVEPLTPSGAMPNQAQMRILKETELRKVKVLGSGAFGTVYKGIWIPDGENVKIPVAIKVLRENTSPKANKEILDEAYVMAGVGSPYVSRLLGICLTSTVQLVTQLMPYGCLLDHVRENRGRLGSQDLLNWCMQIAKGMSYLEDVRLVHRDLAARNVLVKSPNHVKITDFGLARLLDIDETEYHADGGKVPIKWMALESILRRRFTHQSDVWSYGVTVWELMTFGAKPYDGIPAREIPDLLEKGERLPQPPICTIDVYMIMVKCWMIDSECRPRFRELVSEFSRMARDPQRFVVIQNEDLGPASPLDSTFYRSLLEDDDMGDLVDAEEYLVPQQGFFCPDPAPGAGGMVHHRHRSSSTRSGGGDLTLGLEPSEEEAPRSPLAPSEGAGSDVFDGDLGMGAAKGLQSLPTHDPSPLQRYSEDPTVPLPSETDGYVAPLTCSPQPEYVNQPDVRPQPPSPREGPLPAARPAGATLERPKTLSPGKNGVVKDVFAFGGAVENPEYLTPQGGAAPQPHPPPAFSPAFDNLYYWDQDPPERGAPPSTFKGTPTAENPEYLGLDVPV

- mol: "Nc1nc(Nc2ccc(N3CCNC3=O)cc2)nn1C(=O)c1c(F)cccc1F"
  target: "HER2 (human epidermal growth factor receptor-2) (Homo sapiens, UniProt P04626)"
  IC50: "1.44 µM"
- mol: "Nc1nc(Nc2ccc(S(N)(=O)=O)cc2)n(C(=S)Nc2c(F)cccc2F)n1"
  target: "HER2 (human epidermal growth factor receptor-2) (Homo sapiens, UniProt P04626)"
  IC50: "0.11 µM"
- mol: "Cc1ccsc1C(=O)n1nc(Nc2ccc(NS(C)(=O)=O)cc2)nc1N"
  target: "HER2 (human epidermal growth factor receptor-2) (Homo sapiens, UniProt P04626)"
  IC50: "0.17 µM"
- mol: "Cc1ccsc1C(=O)n1nc(Nc2ccc(S(=O)(=O)NCCN(C)C)cc2)nc1N"
  target: "HER2 (human epidermal growth factor receptor-2) (Homo sapiens, UniProt P04626)"
  IC50: "0.202 µM"
- mol: "Cc1ccsc1C(=O)n1nc(Nc2ccc(S(=O)(=O)Nc3ccccn3)cc2)nc1N"
  target: "HER2 (human epidermal growth factor receptor-2) (Homo sapiens, UniProt P04626)"
  IC50: "0.717 µM"

* * *

target: Insulin Receptor Kinase (Homo sapiens, UniProt P06213); assay: Kinase Selectivity Assay Insulin Receptor Kinase; format: biochemical; conditions: read-out: Kinase Assay (IC50 uM) Insulin R Kinase
Sequence (P06213 980-1352): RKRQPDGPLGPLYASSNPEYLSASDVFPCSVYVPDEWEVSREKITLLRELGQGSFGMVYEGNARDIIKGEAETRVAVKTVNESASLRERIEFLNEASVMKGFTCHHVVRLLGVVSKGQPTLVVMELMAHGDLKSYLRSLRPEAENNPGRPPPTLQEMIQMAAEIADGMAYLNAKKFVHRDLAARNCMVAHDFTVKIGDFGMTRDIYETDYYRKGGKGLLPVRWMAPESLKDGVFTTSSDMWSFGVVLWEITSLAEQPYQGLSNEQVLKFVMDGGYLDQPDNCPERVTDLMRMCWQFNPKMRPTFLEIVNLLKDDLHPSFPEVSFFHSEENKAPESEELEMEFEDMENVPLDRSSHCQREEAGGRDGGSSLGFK

- compound: "Cc1cc(C)c(C(=O)n2nc(Nc3ccc(NS(C)(=O)=O)cc3)nc2N)s1 [Cpd 108]"
  IC50: "0.81 µM"

* * *

target: EGFR (epidermal growth factor receptor) (Homo sapiens, UniProt P00533); construct: is purified from human A431 cell membranes (Sigma, St. Louis, MO, Cat.# E3641); purchased Sigma, St. Louis, MO E3641; host or cells: human A431 cell membranes (endogenous protein); assay: Kinase Selectivity Assay EGF-R; format: biochemical; details: read-out: Kinase Assay (IC50 uM) EGF-R
Sequence (P00533 25-1210): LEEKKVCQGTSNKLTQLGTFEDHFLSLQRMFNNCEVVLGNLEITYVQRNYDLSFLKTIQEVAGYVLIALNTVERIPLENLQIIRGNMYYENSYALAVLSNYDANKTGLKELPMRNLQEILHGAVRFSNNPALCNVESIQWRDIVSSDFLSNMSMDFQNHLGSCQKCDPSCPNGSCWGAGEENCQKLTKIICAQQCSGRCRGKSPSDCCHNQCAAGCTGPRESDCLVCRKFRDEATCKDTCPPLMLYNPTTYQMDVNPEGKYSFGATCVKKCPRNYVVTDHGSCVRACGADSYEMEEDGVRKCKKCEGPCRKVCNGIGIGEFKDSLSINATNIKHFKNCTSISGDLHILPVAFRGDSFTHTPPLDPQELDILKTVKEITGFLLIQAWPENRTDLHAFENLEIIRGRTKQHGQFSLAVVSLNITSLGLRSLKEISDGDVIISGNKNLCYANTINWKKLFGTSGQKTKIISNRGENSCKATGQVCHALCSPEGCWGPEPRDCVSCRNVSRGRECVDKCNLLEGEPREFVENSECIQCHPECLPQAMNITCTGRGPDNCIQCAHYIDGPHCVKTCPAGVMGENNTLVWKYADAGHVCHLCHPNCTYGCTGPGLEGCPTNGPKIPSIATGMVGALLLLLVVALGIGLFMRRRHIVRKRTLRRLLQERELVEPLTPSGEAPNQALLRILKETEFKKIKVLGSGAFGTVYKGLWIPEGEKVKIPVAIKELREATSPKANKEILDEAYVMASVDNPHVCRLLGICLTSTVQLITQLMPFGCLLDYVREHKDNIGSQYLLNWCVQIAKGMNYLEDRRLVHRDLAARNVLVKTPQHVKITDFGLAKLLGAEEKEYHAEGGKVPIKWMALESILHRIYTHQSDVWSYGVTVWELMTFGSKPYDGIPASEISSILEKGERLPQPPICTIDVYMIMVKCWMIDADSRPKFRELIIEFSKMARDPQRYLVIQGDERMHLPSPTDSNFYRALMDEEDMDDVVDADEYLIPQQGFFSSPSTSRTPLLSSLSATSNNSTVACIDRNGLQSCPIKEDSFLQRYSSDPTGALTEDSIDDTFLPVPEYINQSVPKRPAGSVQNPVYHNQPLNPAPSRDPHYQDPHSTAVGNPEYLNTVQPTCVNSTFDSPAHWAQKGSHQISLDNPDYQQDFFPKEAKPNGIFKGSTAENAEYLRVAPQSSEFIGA
measurement label: IC50

- compound: "CC(C)(C)c1ccc(C(=O)n2nc(Nc3ccc(S(N)(=O)=O)cc3)nc2N)s1 [Cpd 51]"
  target: "EGFR (epidermal growth factor receptor) (Homo sapiens, UniProt P00533)"
  endpoint value: "1.1 µM"
- compound: "Cc1ccsc1C(=O)n1nc(Nc2ccc(N3CCCS3(=O)=O)cc2)nc1N [Cpd 116]"
  target: "EGFR (epidermal growth factor receptor) (Homo sapiens, UniProt P00533)"
  endpoint value: "> 100 µM"
- compound: "Nc1nc(Nc2ccc(S(N)(=O)=O)cc2)nn1C(=O)C1CCCCC1 [Cpd 39]"
  target: "EGFR (epidermal growth factor receptor) (Homo sapiens, UniProt P00533)"
  endpoint value: "> 100 µM"
- compound: "CC(O)c1ccc(F)c(C(=O)n2nc(Nc3ccc(S(N)(=O)=O)cc3)nc2N)c1F (stereo not drawn) [Cpd 58]"
  target: "EGFR (epidermal growth factor receptor) (Homo sapiens, UniProt P00533)"
  endpoint value: "> 10 µM"
- compound: "Nc1nc(Nc2ccc(S(=O)(=O)Nc3ccccn3)cc2)nn1C(=O)c1c(F)cccc1F [Cpd 118]"
  target: "EGFR (epidermal growth factor receptor) (Homo sapiens, UniProt P00533)"
  endpoint value: "> 100 µM"
- compound: "CNS(=O)(=O)c1ccc(Nc2nc(N)n(C(=O)c3sccc3C)n2)cc1 [Cpd 82]"
  target: "EGFR (epidermal growth factor receptor) (Homo sapiens, UniProt P00533)"
  endpoint value: "> 100 µM"
- compound: "Nc1nc(Nc2ccc(N3CCCS3(=O)=O)cc2)nn1C(=O)c1c(F)cccc1F [Cpd 117]"
  target: "EGFR (epidermal growth factor receptor) (Homo sapiens, UniProt P00533)"
  endpoint value: "> 100 µM"
- compound: "Cc1ccccc1C(=O)n1nc(Nc2ccc(S(N)(=O)=O)cc2)nc1N [Cpd 57]"
  target: "EGFR (epidermal growth factor receptor) (Homo sapiens, UniProt P00533)"
  endpoint value: "> 100 µM"
- compound: "Nc1ccc(F)c(C(=O)n2nc(Nc3ccc(S(N)(=O)=O)cc3)nc2N)c1F [Cpd 55]"
  target: "EGFR (epidermal growth factor receptor) (Homo sapiens, UniProt P00533)"
  endpoint value: "16.1 µM"
- compound: "Cc1ccsc1C(=O)n1nc(Nc2ccc(NS(C)(=O)=O)cc2)nc1N [Cpd 109]"
  target: "EGFR (epidermal growth factor receptor) (Homo sapiens, UniProt P00533)"
  endpoint value: "> 100 µM"
- compound: "Cc1cc(C)c(C(=O)n2nc(Nc3ccc(S(=O)(=O)NCCN(C)C)cc3)nc2N)s1 [Cpd 107]"
  target: "EGFR (epidermal growth factor receptor) (Homo sapiens, UniProt P00533)"
  endpoint value: "0.936 µM"
- compound: "Cc1cc(C)c(C(=O)n2nc(Nc3ccc(-n4ccnc4)cc3)nc2N)s1 [Cpd 92]"
  target: "EGFR (epidermal growth factor receptor) (Homo sapiens, UniProt P00533)"
  endpoint value: "> 100 µM"
- compound: "CCc1ccc(C(=O)n2nc(Nc3ccc(S(=O)(=O)NCCN(C)C)cc3)nc2N)s1 [Cpd 103]"
  target: "EGFR (epidermal growth factor receptor) (Homo sapiens, UniProt P00533)"
  endpoint value: "> 10 µM"
- compound: "Cc1ccc(F)c(C(=O)n2nc(Nc3ccc(S(=O)(=O)NCCN(C)C)cc3)nc2N)c1F [Cpd 105]"
  target: "EGFR (epidermal growth factor receptor) (Homo sapiens, UniProt P00533)"
  endpoint value: "9.6 µM"
- compound: "CNS(=O)(=O)c1ccc(Nc2nc(N)n(C(=O)c3sc(C)cc3C)n2)cc1 [Cpd 83]"
  target: "EGFR (epidermal growth factor receptor) (Homo sapiens, UniProt P00533)"
  endpoint value: "> 100 µM"
